Sourced from ChEMBL document CHEMBL3822383

Tested on: A549
measurementNotes: cells
studyConditions: Homo sapiens, A549, 24 h
Description: Antiproliferative activity against human A549 cells after 24 hrs by MTT assay
measurementName: IC50 (µM)

Worked set:
| molecule | readoutNumber |
| --- | --- |
| Cc1ccc(-c2cc(C(=O)N/N=C/c3c(Cl)c4ccccc4oc3=O)nn2-c2ccc(S(N)(=O)=O)cc2)c(C)c1 | 28.5 |
| NS(=O)(=O)c1ccc(-n2nc(C(=O)N/N=C/c3c(Cl)c4ccccc4oc3=O)cc2-c2ccccc2F)cc1 | 14.3 |

[a] Cc1ccc(-c2cc(C(=O)N/N=C/c3c(Cl)c4ccccc4oc3=O)nn2-c2ccc(S(N)(=O)=O)cc2)cc1
[b] NS(=O)(=O)c1ccc(-n2nc(C(=O)N/N=C/c3c(Cl)c4ccccc4oc3=O)cc2-c2cccc(Cl)c2)cc1
-- ask Parameter check: reported IC50 is higher for which label, a or b ? Write down the label of the entry you select.
-- reply a
